Exercise: for every item that follows, state its recorded % Change (mg/dl) in cholesterol.
Experiment: in vivo screen APCC: blood cholesterol in rats fed overnight a high fat, high cholesterol (PCC) diet
Settings: male Sprague-Dawley rats, dosed at 4 PM, PCC diet with 0.5% cholic acid overnight, blood sampled 8 AM, dose not given
Answers are plain numbers, in %.

- COMPOUND: "COc1ccccc1CC(=O)NS(=O)(=O)Oc1c(C(C)C)cccc1C(C)C"
  UNIT_LABEL: "%"
  % Change (mg/dl) in cholesterol: -16
- COMPOUND: "CCC(C(=O)NS(=O)(=O)Oc1c(C(C)C)cccc1C(C)C)c1ccccc1 (centres unmarked)"
  UNIT_LABEL: "%"
  % Change (mg/dl) in cholesterol: -48
- COMPOUND: "CC(C)c1cccc(C(C)C)c1OS(=O)(=O)NC(=O)CC12CC3CC(CC(C3)C1)C2"
  UNIT_LABEL: "%"
  % Change (mg/dl) in cholesterol: -47
- COMPOUND: "CC(C)c1cccc(C(C)C)c1OS(=O)(=O)NC(=O)CC(c1ccccc1)c1ccccc1"
  UNIT_LABEL: "%"
  % Change (mg/dl) in cholesterol: -31
- COMPOUND: "CC(C)c1cccc(C(C)C)c1OS(=O)(=O)NC(=O)C(=O)c1ccccc1"
  UNIT_LABEL: "%"
  % Change (mg/dl) in cholesterol: -23

Answer for every listed entry: what is its % Change (mg/dl) in cholesterol? The entries follow.
1. CC(C)c1cc(C(C)C)c(CC(=O)NS(=O)(=O)Oc2c(C(C)C)cc(C(C)C)cc2C(C)C)c(C(C)C)c1
2. CC(C)c1cccc(C(C)C)c1OS(=O)(=O)NC(=O)C(c1ccc(Cl)cc1)c1ccc(Cl)cc1
3. CC(C)c1cccc(C(C)C)c1OS(=O)(=O)NC(=O)C12CC3CC(CC(C3)C1)C2

[reply]
1: -66; 2: -9; 3: -5

* * *

Exercise: for every item that follows, state its recorded % Change (mg/dl) in cholesterol.
Test: in vivo screen APCC: blood cholesterol in rats fed overnight a high fat, high cholesterol (PCC) diet
Conditions: male Sprague-Dawley rats, dosed at 4 PM, PCC diet with 0.5% cholic acid overnight, blood sampled 8 AM, dose not given

Previously resolved entries follow.
- COMPOUND: "CCCCCCCCCCCC(=O)NS(=O)(=O)Oc1c(C(C)C)cccc1C(C)C [Example 11]"
  OBSERVED_PROPERTY: "% Change (mg/dl) in cholesterol"
  RESULT: "-8%"
- COMPOUND: "CC(C)c1cccc(C(C)C)c1OS(=O)(=O)NC(=O)CC1CCCCC1 [Example 26]"
  OBSERVED_PROPERTY: "% Change (mg/dl) in cholesterol"
  RESULT: "-26%"
- COMPOUND: "CC(C)c1cccc(C(C)C)c1OS(=O)(=O)NC(=O)C1(c2ccccc2)CCCC1 [Example 30]"
  OBSERVED_PROPERTY: "% Change (mg/dl) in cholesterol"
  RESULT: "-40%"
- COMPOUND: "CC(C)c1cccc(C(C)C)c1OS(=O)(=O)NC(=O)C(c1ccccc1)C1CCCC1 (centres unmarked) [Example 25]"
  OBSERVED_PROPERTY: "% Change (mg/dl) in cholesterol"
  RESULT: "-71%"
- COMPOUND: "CC(C)c1cccc(C(C)C)c1OS(=O)(=O)NC(=O)[C@@H]1C[C@H]1c1ccccc1 (relative stereo) [Example 15]"
  OBSERVED_PROPERTY: "% Change (mg/dl) in cholesterol"
  RESULT: "-14%"

Answer for every listed entry: what is its % Change (mg/dl) in cholesterol? The entries follow.
1. CC(C)c1cc(C(C)C)c(OCC(=O)NS(=O)(=O)Oc2c(C(C)C)cccc2C(C)C)c(C(C)C)c1 [Example 46]
2. CC(C)c1cccc(C(C)C)c1OS(=O)(=O)NC(=O)CCc1ccccc1 [Example 38]
3. CC(C)c1cc(C(C)C)c(C=CC(=O)NS(=O)(=O)Oc2c(C(C)C)cccc2C(C)C)c(C(C)C)c1 [Example 40]

[reply]
["-57%", "-16%", "-54%"]
